Values were extracted from patent US10683286B2.

- TARGET_OR_TEST_SYSTEM: STAT5b-SH2 domain (Homo sapiens, UniProt P51692)
- MEASUREMENT_DESCRIPTION: Competitive fluorescence polarization (FP) assay, STAT5b-SH2 domain
- MEASUREMENT_PARAMETERS: Table 1, inhibitors of STAT5b; KI converted from IC50
READOUT_TYPE: Ki

Exercise: Quick one: Ki of c1nnn[nH]1 [Compound 5, 1H-tetrazole, reference compound] ?
Key: > 500 µM

====

- TARGET_OR_TEST_SYSTEM: STAT5b-SH2 domain (Homo sapiens)
- Sequence (P51692 136-703): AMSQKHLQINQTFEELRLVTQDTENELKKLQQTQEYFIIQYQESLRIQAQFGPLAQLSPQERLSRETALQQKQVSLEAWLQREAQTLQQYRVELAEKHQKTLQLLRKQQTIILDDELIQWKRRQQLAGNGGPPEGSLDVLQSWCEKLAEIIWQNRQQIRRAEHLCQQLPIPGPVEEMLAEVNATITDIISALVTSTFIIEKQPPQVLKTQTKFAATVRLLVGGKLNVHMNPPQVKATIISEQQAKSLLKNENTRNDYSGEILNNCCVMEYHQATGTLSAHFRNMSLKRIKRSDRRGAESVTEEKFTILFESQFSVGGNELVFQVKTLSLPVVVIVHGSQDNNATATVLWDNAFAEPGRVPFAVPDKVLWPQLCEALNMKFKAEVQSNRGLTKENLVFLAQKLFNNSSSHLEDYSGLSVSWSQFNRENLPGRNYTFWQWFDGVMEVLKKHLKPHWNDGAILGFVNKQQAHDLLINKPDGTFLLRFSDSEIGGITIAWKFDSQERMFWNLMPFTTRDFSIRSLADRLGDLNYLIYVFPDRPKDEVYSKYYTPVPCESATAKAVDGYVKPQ
- MEASUREMENT_DESCRIPTION: Competitive fluorescence polarization (FP) assay, STAT5b-SH2 domain
READOUT_TYPE: Ki (µM)
Your answer is read as µM, so omit the unit and give the number.

In the examples that follow, each entry is paired with its recorded Ki.
{"COMPOUND": "COC(=O)c1nonc1NCn1nnnc1-c1cccc(O)c1 [Compound 24]", "READOUT_TYPE": "Ki", "MEASURED_NUMBER": 22.3}
{"COMPOUND": "O=C(O)c1nonc1NCn1nnnc1-c1cccc(OC(F)(F)F)c1 [Compound 26]", "READOUT_TYPE": "Ki", "MEASURED_NUMBER": 3}
{"COMPOUND": "O=C(O)c1nonc1NCn1cncn1 [Compound 10]", "READOUT_TYPE": "Ki", "MEASURED_NUMBER": 47.5}

Exercise: Look up Ki: O=C(O)c1nonc1NCn1cnnn1 [Compound 3]
Key: 1.4

Exercise: Fill in the blank: the reported Ki of O=C(O)c1nonc1NCn1nnnc1-c1cccc(C(F)(F)F)c1 [Compound 21] is ____.
Key: 0.86

Exercise: Could you share which Ki value was measured for O=C(O)c1nonc1NCn1nnnc1-c1cccc(F)c1 [Compound 27] ?
Key: 0.62

Exercise: What value of measured Ki is listed for O=C(O)c1nonc1NCn1nnnc1Cc1ccccc1 [Compound 30] ?
Key: 8.6

Exercise: Consider the compound shown here: COC(=O)c1nonc1NCn1nnnc1-c1cccc(OC(F)(F)F)c1 [Compound 25] What is its recorded Ki?
Key: 16.7
